Where these numbers come from: ChEMBL document CHEMBL4393663

# Method summary: Stability in 80% human plasma assessed as half life by HPLC analysis
# Type: ADME, cell-free
The reader will find reported half-life values listed item by item below.

> print(dat)
                           smiles.notation     val
1     CCCC(CCC)C(=O)N(C)/N=N/c1ccc(C#N)cc1  > 40 h
2      CCCC(CCC)C(=O)N(C)/N=N/c1ccc(Br)cc1  > 40 h
3       CCCC(CCC)C(=O)N(C)/N=N/c1ccc(C)cc1  > 40 h
4  CCCC(CCC)C(=O)N(C)/N=N/c1ccc(C(N)=O)cc1  > 40 h

Which value of half-life has been reported for "CCCC(CCC)C(=O)N(C)/N=N/c1ccc(Cl)cc1" in the records?
> 40 h

====

# Method summary: Drug metabolism assessed as Cu2+-mediated compound decomposition by measuring aniline formation at 33 uM measured at 1 min interval for 30 mins by UV-Vis spectrophotometric analysis
Measurement label: Drug metabolism

> print(dat)
                            smiles.notation  measurement.label                      val
1            CCCC(=O)N(C)/N=N/c1ccc(C#N)cc1    Drug metabolism  Metabolite not detected
2                 CCOC(=O)c1ccc(/N=N/NC)cc1    Drug metabolism      Metabolite detected
3                        CN=NNc1ccc(C#N)cc1    Drug metabolism      Metabolite detected
4  CCCC(CCC)C(=O)N(C)/N=N/c1ccc(C(=O)OCC)cc1    Drug metabolism  Metabolite not detected

====

Overview of reported logD at 30 min across a group of compounds:
# Method summary: Octanol-phosphate buffered saline distribution coefficient, log D of compound at pH 7.4 at 1 mg shake for 30 mins and measured after 48 hrs by HPLC analysis
# Assay type: physicochemical
Lab note: write the figure by itself, no unit.

// below: answered compounds
> print(dat)
                            smiles.notation   val
1        CCC(CC)C(=O)N(C)/N=N/c1ccc(C#N)cc1  3.76
2        CCCC(CCC)C(=O)N(C)/N=N/c1ccc(C)cc1  4.98
3          CC(C)C(=O)N(C)/N=N/c1ccc(C#N)cc1  2.95
4            CCCC(=O)N(C)/N=N/c1ccc(C#N)cc1  3.19
5  CCCC(CCC)C(=O)N(C)/N=N/c1ccc(C(=O)OC)cc1   4.7

Bench note: what logD at 30 min did "CCCC(CCC)C(=O)N(C)/N=N/c1ccc(Br)cc1" show?
4.81

Could you share which logD at 30 min value was measured for "CCCC(CCC)C(=O)N(C)/N=N/c1ccc(C#N)cc1" ?
4.84

Can you share its logD at 30 min? I mean this compound: "CCCC(CCC)C(=O)N(C)/N=N/c1ccc(C(=O)OCC)cc1"
4.95

Report logD at 30 min for "CCCC(CCC)C(=O)N(C)/N=N/c1ccc(Cl)cc1" please.
4.62
